Biological target: Ecdysone receptor (Heliothis virescens, UniProt O18473+Q7SIF6)
Sequence (O18473 whole entry): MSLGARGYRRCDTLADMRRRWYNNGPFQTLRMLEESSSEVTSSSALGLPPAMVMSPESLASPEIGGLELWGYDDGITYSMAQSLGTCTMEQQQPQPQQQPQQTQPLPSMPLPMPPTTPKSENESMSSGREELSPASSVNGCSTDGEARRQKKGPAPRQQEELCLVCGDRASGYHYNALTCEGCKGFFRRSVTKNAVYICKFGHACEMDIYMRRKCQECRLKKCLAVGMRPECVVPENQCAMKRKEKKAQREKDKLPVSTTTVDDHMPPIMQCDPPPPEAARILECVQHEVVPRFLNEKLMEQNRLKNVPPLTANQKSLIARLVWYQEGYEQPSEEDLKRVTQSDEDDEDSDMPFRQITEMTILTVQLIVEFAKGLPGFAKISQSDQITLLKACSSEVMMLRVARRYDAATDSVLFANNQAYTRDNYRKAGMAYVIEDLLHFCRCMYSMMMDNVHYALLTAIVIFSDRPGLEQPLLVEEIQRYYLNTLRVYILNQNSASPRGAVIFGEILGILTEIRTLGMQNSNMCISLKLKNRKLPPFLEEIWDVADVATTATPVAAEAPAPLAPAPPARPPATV
Sequence (Q7SIF6 whole entry): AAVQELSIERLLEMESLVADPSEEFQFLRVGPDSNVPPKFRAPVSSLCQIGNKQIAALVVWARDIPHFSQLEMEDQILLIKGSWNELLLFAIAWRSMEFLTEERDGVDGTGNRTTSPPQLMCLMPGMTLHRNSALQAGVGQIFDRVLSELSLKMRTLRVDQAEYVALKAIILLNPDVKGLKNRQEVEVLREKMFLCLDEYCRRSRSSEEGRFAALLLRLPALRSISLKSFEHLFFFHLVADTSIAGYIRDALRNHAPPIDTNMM
Assay: Binding affinity to Heliothis virescens (tobacco budworm) EcR
assay_endpoint: Ki (nM)
Return type: number; implicit unit nM.

For CCc1ccc(C(=O)NN(C(=O)c2cc(C)cc(C)c2)C(C)(C)C)cc1 [TEBUFENOZIDE] the compound record lists Ki as 3.16

* * *

Target: Ecdysone receptor (Plodia interpunctella, UniProt Q6IVK1+Q6RVD3)
Sequence (Q6RVD3 whole entry): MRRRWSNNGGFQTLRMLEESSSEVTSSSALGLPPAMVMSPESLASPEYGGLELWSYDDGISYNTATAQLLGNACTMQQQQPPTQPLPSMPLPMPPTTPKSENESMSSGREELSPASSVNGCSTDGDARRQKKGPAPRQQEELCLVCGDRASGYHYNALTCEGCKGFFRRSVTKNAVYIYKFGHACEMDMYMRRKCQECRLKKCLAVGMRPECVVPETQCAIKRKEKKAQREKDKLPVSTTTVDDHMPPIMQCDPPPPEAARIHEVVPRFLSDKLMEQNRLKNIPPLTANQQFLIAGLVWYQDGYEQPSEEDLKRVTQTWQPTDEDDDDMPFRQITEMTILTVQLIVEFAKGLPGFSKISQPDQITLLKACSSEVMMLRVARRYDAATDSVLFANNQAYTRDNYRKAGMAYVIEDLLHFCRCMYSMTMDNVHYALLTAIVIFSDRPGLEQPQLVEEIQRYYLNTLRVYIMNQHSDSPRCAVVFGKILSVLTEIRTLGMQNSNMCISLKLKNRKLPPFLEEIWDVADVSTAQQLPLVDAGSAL
Sequence (Q6IVK1 whole entry): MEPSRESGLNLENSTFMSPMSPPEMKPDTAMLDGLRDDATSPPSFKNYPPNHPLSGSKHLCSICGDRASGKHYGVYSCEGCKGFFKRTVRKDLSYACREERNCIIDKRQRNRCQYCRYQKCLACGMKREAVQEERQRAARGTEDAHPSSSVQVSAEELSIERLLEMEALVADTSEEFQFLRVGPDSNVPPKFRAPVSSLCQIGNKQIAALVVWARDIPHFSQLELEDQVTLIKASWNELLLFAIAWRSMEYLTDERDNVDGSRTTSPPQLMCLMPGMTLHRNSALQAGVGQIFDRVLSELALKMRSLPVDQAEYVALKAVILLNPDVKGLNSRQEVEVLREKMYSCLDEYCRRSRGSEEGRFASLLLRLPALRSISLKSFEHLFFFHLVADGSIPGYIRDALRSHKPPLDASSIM
Assay: Binding affinity to Plodia interpunctella (Indian meal moth ) EcR
assay_endpoint: pKi
Note on pKi: it is the negative log10 of concentration, concentration in mol/L.

For CCc1ccc(C(=O)NN(C(=O)c2cc(C)cc(C)c2)C(C)(C)C)cc1 [TEBUFENOZIDE] the compound record lists pKi as 8.50
